Consider the following sequences and their measured shrunken log2 fold change readings.
Test system: Escherichia coli TOP10;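 also: peptides expressed intracellularly from a pBAD plasmid library in pooled LB shake-flask culture, induced with 0.3% L-arabinose, DNA abundance read by NGS, three biological replicates, DESeq2 with apeglm shrinkage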
Test: shrunken log2 fold change of peptide-encoding DNA abundance (4.5 h post-induction vs induction); higher = less antimicrobial activity (less host growth inhibition)
Conditions: time post-induction: 4.5 h; library: site-saturation at positions 5, 18, 19, 20
I'd appreciate a reply containing only the number, no unit.

                  residues  testvalue
0  RRIRMRPPRLPRPRPRPTIYPRP      0.713
1  RRIRFRPPRLPRPRPRPTEDPRP     0.0193
2  RRIRCRPPRLPRPRPRPGEKPRP     0.0653

Just so you know, measured shrunken log2 fold change for RRIRLRPPRLPRPRPRPNTNPRP came out at -0.576

Measured shrunken log2 fold change, RRIRTRPPRLPRPRPRPSPLPRP : -0.335

Notebook: RRIRKRPPRLPRPRPRPKYKPRP , shrunken log2 fold change read as -0.19

The sequence listed as RRIRARPPRLPRPRPRPLGLPRP shows shrunken log2 fold change equal to 0.353

// RRIRYRPPRLPRPRPRPPLIPRP : shrunken log2 fold change value = -0.185

Field shrunken log2 fold change (entry RRIRDRPPRLPRPRPRPPTYPRP ) reads -0.383

Given item RRIRSRPPRLPRPRPRPAWHPRP , the value recorded as its shrunken log2 fold change is 0.0201

Lab note: measured shrunken log2 fold change of RRIRDRPPRLPRPRPRPPKLPRP was 0.0369

Short answer for RRIRRRPPRLPRPRPRPWMWPRP : shrunken log2 fold change was 0.0918
